measurement.target: recombinant human SAE enzyme (Homo sapiens)
Sequence (Q9UBT2 whole entry): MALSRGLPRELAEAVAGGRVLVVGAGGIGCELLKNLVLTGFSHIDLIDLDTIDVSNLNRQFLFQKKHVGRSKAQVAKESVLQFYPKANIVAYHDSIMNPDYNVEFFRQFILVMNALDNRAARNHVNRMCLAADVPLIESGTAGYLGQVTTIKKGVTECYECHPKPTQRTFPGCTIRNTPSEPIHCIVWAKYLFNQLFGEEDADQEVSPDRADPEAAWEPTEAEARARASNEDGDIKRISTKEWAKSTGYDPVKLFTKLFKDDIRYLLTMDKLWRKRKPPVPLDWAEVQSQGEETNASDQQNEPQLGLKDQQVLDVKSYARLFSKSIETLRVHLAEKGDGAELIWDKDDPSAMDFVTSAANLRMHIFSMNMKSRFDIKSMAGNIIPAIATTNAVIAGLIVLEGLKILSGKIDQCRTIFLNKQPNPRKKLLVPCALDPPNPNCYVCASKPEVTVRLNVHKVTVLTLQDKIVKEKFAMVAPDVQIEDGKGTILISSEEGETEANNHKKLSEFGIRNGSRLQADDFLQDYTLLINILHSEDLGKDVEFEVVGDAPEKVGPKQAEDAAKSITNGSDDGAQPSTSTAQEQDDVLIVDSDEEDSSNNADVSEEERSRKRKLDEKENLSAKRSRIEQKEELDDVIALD
Sequence (Q9UBE0 whole entry partner): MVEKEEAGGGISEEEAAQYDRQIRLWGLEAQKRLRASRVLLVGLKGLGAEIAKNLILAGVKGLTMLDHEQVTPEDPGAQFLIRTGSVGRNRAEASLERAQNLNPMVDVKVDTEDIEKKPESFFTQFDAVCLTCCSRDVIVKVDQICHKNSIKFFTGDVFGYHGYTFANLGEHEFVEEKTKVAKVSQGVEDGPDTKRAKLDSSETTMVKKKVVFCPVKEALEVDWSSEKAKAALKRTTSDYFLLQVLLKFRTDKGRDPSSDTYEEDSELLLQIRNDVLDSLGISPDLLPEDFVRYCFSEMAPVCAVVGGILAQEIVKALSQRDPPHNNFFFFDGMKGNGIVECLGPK
experiment.summary: SAE HTRF Enzyme Assay
Type: biochemical
condition.details: compound concentration 0.111 μM; read-out: Percent Inhibition
measure: inhibition at 0.111 µM (%)

- smiles.representation: "NS(=O)(=O)OC[C@H]1C[C@@H](Nc2ncncc2C(=O)c2ccn(Cc3cc(C(F)(F)F)cc(C(F)(F)F)c3)n2)[C@H](O)[C@@H]1O"
  unit.text: "%"
  limit.sign: "="
  experimental.result: 97
- smiles.representation: "NS(=O)(=O)OC[C@H]1C[C@@H](Nc2ncncc2C(=O)c2ccn(Cc3cc(C(F)(F)F)ccc3F)n2)[C@H](O)[C@@H]1O"
  unit.text: "%"
  limit.sign: "="
  experimental.result: 98
- smiles.representation: "NS(=O)(=O)OC[C@H]1C[C@@H](Nc2ncncc2C(=O)c2ccn(Cc3cc(F)c(F)cc3F)n2)[C@H](O)[C@@H]1O"
  unit.text: "%"
  limit.sign: "="
  experimental.result: 97
- smiles.representation: "NS(=O)(=O)OC[C@H]1C[C@@H](Nc2ncncc2C(=O)c2ccn(Cc3ccc(F)c4ccccc34)n2)[C@H](O)[C@@H]1O"
  unit.text: "%"
  limit.sign: "="
  experimental.result: 98
- smiles.representation: "NS(=O)(=O)OC[C@H]1C[C@@H](Nc2ncncc2C(=O)c2ccn(Cc3ccc(OC(F)(F)F)cc3)n2)C[C@@H]1O"
  unit.text: "%"
  limit.sign: "="
  experimental.result: 82
- smiles.representation: "NS(=O)(=O)OC[C@H]1C[C@@H](Nc2ncncc2C(=O)c2ccn(Cc3cc(F)c(F)cc3F)n2)C[C@@H]1O"
  unit.text: "%"
  limit.sign: "="
  experimental.result: 93
- smiles.representation: "Cc1ccnc(Cn2ccc(C(=O)c3cncnc3N[C@@H]3C[C@H](COS(N)(=O)=O)[C@@H](O)[C@H]3O)n2)c1"
  unit.text: "%"
  limit.sign: "="
  experimental.result: 100
- smiles.representation: "NS(=O)(=O)OC[C@H]1C[C@@H](Nc2ncncc2C(=O)c2ccn(Cc3c(F)ccc(F)c3F)n2)[C@H](O)[C@@H]1O"
  unit.text: "%"
  limit.sign: ">"
  experimental.result: 99
- smiles.representation: "C#Cc1cc(Cn2ccc(C(=O)c3cncnc3N[C@@H]3C[C@H](COS(N)(=O)=O)[C@@H](O)C3)n2)ccc1F"
  unit.text: "%"
  limit.sign: "="
  experimental.result: 98
- smiles.representation: "NS(=O)(=O)OC[C@H]1C[C@@H](Nc2ccncc2C(=O)c2ccn(Cc3cccc(Cl)c3)n2)[C@@H](F)[C@@H]1O"
  unit.text: "%"
  limit.sign: "="
  experimental.result: 96
- smiles.representation: "COCc1ccc(Cn2ccc(C(=O)c3cncnc3N[C@@H]3C[C@H](COS(N)(=O)=O)[C@@H](O)[C@@H]3F)c2)o1"
  unit.text: "%"
  limit.sign: "="
  experimental.result: 94
- smiles.representation: "NS(=O)(=O)OC[C@H]1C[C@@H](Nc2ncncc2C(=O)c2ccn(Cc3cccc(OC(F)(F)F)c3)n2)[C@@H](F)[C@@H]1O"
  unit.text: "%"
  limit.sign: "="
  experimental.result: 98
- smiles.representation: "NS(=O)(=O)OC[C@H]1C[C@@H](Nc2ccncc2C(=O)c2ccn(Cc3ccc(F)c(C(F)(F)F)c3)n2)C[C@@H]1O"
  unit.text: "%"
  limit.sign: "="
  experimental.result: 91
